growth inhibition overview
- procedure summary: NCI Yeast Anticancer Drug Screen. Data for the mlh1 rad18 strain (AID 175)
- assay context: S. cerevisiae mlh1 rad18 strain growth inhibition; at 50.0 µM; stronger effect = higher value
About 79,000 compounds went through this panel and 15% of them were active in at least one assay; those are over-represented in the sample as a whole.

# compound, growth inhibition (%)
data = [
    ("Cn1c(=O)c(Br)cc2ccccc21", 33.5),
    ("Cc1cccc2nc(-c3ccccc3)ccc12", 4),
    ("COc1cc(C)ccc1C(=O)C[n+]1ccc2ccccc2c1", -2.5),
    ("C/C=C/C=C/C(=O)OCC", 14.3),
    ("CC1(C)Cc2cccc(OC(=O)NO)c2O1", 9),
    ("CC(C)(c1ccsc1)c1sccc1C(=O)O", 16.2),
    ("O=C1C(=Nc2ccc(Cl)nc2)CC(c2ccccc2)N1c1ccc(Cl)nc1 (stereo not drawn)", -4),
    ("Nc1c(N=Nc2ccc(S(=O)(=O)Nc3cnccn3)cc2)cc(S(=O)(=O)O)c2ccccc12", 26.6),
    ("CC1=CC(=O)N2C(OC[C@@H]2c2ccccc2)O1 (stereo partly drawn)", -21.4),
    ("C/C=C/C[P+](Cc1ccccc1)(c1ccccc1)c1ccccc1", 14.3),
    ("CCC(O)C(C)CO (stereo not drawn)", -46.9),
    ("O=C1C(Cl)C(c2ccccc2)N1n1cnc2ccccc2c1=O (stereo not drawn)", -12.7),
    ("O=C(NC(Cc1cnc[nH]1)C(=O)N1CCCC1)C1CCCC1 (stereo not drawn)", -14.3),
    ("NC(=O)C(CCCCNc1c(C(=O)O)cc([N+](=O)[O-])cc1[N+](=O)[O-])NC(=O)c1ccccc1 (stereo not drawn)", 28.8),
    ("CC(=O)Nc1ccc(NC(=O)Nc2cccc(C(C)=O)c2)cc1", 28.6),
    ("C=C1CC(C)(COc2cc(=O)oc3ccccc23)OC1=O (stereo not drawn)", 40.5),
    ("COc1cc(CC(=O)c2ccc3c(c2)OCO3)cc(OC)c1OC", -25.3),
    ("FC(F)(F)C(F)(F)C(F)(F)C(F)(F)C(F)(F)C(F)(F)C(F)(F)c1noc(C(F)(F)C(F)(F)C(F)(F)C(F)(F)C(F)(F)C(F)(F)C(F)(F)F)n1", 17.4),
    ("CCOC(=O)NC(CI)(c1ccccc1)c1ccccc1", 14.6),
    ("c1ccc2c(c1)CCOC2", -3.1),
    ("O=C(COc1ccccc1)NCc1ccc(Cl)cc1", 21.9),
    ("SC(S)(Cc1ccccc1)Cc1ccccc1", 1),
    ("CCC1(C)N=C(C(N)=O)c2ncn(N=C(C)C)c2N1 (stereo not drawn)", -16.6),
]

###

- procedure summary: NCI Yeast Anticancer Drug Screen. Data for the rad50 strain (AID 155);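 further: 0% = growth of vehicle-only cultures of the same strain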
- assay context: S. cerevisiae rad50 strain growth inhibition; at 50.0 µM; stronger effect = higher value
The panel holds about 79,000 compounds, 15% with a hit somewhere; the sample as a whole holds those more often.

# molecule, scale unit, growth inhibition
rows = [
    ("N#CC(c1ccccc1)N(CCc1ccccc1)C(=O)c1ccc(C(=O)N(CCc2ccccc2)C(C#N)c2ccccc2)cc1 (stereo unspecified)", "%", 15.2),
    ("Nc1cccc(C(F)(F)F)c1", "%", -20.8),
    ("CN1CCN(C(CO)Cc2ccccc2)CC1 (stereo unspecified)", "%", 3.85),
    ("ClCCc1ccccc1CC1=NCCc2ccccc21", "%", 18.6),
    ("O=C(OCCCl)C1OC(n2cc(F)c(=O)[nH]c2=O)CC1O (stereo unspecified)", "%", 23.4),
    ("O=C(c1ccccc1)C(C(c1ccccc1)N1CCOCC1)N1CCOCC1 (stereo unspecified)", "%", -19.1),
    ("OC(CCCCCCCCC(O)CN1CCCCC1)CN1CCCCC1 (stereo unspecified)", "%", 3.3),
    ("Nc1cc(S(=O)(=O)O)ccc1O", "%", -1),
    ("Cc1ccc(NC(=O)c2ccco2)c(C)c1", "%", -2.3),
    ("ONC1=Nc2ccccc2C(=S)N2CSCC12 (stereo unspecified)", "%", -21),
    ("COc1ccc(-c2cc(C)cc(O)c2)c(OC)c1OC", "%", 7.5),
]

###

Quick reference for growth inhibition among some molecules
- procedure summary: NCI Yeast Anticancer Drug Screen. Data for the mec2-1 strain (AID 157)
- assay context: S. cerevisiae mec2-1 strain, at 50.0 µM, stronger effect = higher value
The panel holds about 79,000 compounds, 15% with a hit somewhere; the sample as a whole holds those more often.

# molecule, growth inhibition / %
data = [
    ("Cc1ccc(NC(=O)CCC(NS(=O)(=O)c2ccc(C)cc2)C(=O)O)cc1 (stereo not drawn)", 17.5),
    ("CCc1cccc(CC)c1NC(=O)CC1SC(N)=NC1=O (stereo not drawn)", -19.2),
    ("CC(Sc1ccccn1)C(=O)c1ccccc1 (stereo not drawn)", -6.75),
    ("N#Cc1c2nc3ccccc3nc2n2ccc3ccccc3c12", -61),
    ("Cc1cc(=O)c2cccc(-c3ccccc3)c2[nH]1", 1.25),
    ("CCOC(=O)NC(=O)c1cn(C2OC(CO)C(O)C2O)c(=O)[nH]c1=O (stereo not drawn)", -18.6),
    ("N#CC1C=Cc2ccccc2N1C(=O)Oc1ccccc1 (stereo not drawn)", 14.3),
    ("O=C(NNC(=O)c1ccc2ccccc2c1)c1ccc(F)cc1", 0.9),
    ("CCC(C)Nc1ncnc2c1cnn2C (stereo not drawn)", -27.9),
    ("CCSc1nnc2c(-c3ccccc3)n[nH]c2n1", -0.05),
    ("c1ccc2c(c1)NCCOCCNc1ccccc1OCCNCCO2", 36.5),
    ("COc1ccc(CN2CCCN(Cc3ccc(OC)cc3)C2c2ccc([N+](=O)[O-])cc2)cc1", 14.8),
    ("COc1ccccc1/C=C1/C(=O)ON=C1C", -21.1),
    ("COc1ccc(/C=C2\\N=C(NN)N=C2Cl)cc1", -30.9),
    ("O=c1[nH]c(=O)n(C2CC(O)C(CO)O2)c2ncncc12 (stereo not drawn)", -0.3),
    ("CC(C)(C)OC1COCCO1 (stereo not drawn)", -5.35),
    ("CC(=O)n1oc2c(Br)cc(Br)cc2c1=O", 2.85),
    ("NC(=O)CC(N)=O", -5.1),
]

###

- procedure summary: NCI Yeast Anticancer Drug Screen. Data for the mlh1 rad18 strain (AID 175)
- assay context: S. cerevisiae mlh1 rad18 strain growth inhibition; at 50.0 µM; stronger effect = higher value
- Experimental: Growth inhibition of yeast strains with defined genetic alterations is measured as a screen for potential anti-cancer activity. Selected strains with alterations in DNA damage repair or cell cycle control were exposed to compounds and growth inhibition was measured relative to vehicle treated controls. The strain used in this assay is mlh1 rad18
About 79,000 compounds went through this panel and 15% of them were active in at least one assay; those are over-represented in the sample as a whole.
measured metric: growth inhibition (%)

# compound, measured metric, observed result
measured = [
    ("Cc1ccc(NC(=O)N2CC2(C)C)cc1NC(=O)N1CC1(C)C", "growth inhibition", 4.9),
    ("NS(=O)(=O)c1ccc(Nc2c3ccccc3nc3c(C(=O)NCCO)cccc23)cc1", "growth inhibition", -1.9),
    ("Cc1ccc(NC(=O)C(=O)Cc2cccc[n+]2[O-])cc1C", "growth inhibition", -6.1),
    ("Nc1nc2c(ccc3ccccc32)[nH]1", "growth inhibition", 21.6),
    ("CCCCCCCOC(C)=O", "growth inhibition", 21.6),
    ("COc1ccc(Nc2ccnc(N)n2)cc1", "growth inhibition", -13.2),
    ("O=NNc1ccc(Sc2ccc(NN=O)nc2)cc1", "growth inhibition", 21.9),
    ("CC(=O)N(c1ccc(NC(=O)c2ccc(N3C(=O)c4ccccc4C3=O)cc2[N+](=O)[O-])cc1)c1cc[n+](C)cc1", "growth inhibition", 3.75),
    ("SC1(S)CCCN(Cc2ccccc2)C1", "growth inhibition", 37.8),
    ("N#Cc1c(-c2ccccc2)c[nH]c1/N=C/N", "growth inhibition", -6.5),
    ("O=C(O)CC(CC(=O)O)c1ccc2c(c1)OCO2", "growth inhibition", -13.1),
    ("C=CCOC(=O)Nc1ccc(S(=O)(=O)CC)cc1", "growth inhibition", -1.65),
    ("CN1C(=O)c2c(ccc3c2OCO3)C2C(O)Cc3cc4c(cc3C21)OCO4 (stereo unspecified)", "growth inhibition", -51),
    ("CC1(C(=O)O)CCC2(C)CCC3(C)C(=CC(=O)C4C5(C)CCC(OC6OC(C(=O)O)C(O)C(O)C6OC6OC(C(=O)O)C(O)C(O)C6O)C(C)(C)C5CCC43C)C2C1 (stereo unspecified)", "growth inhibition", 19.2),
    ("Clc1ccccc1/C=C(/c1ccccc1)c1ccccn1", "growth inhibition", 15.8),
    ("CCOC(=O)CC(=O)C1CCC2C3CC=C4CC(O)CCC4(C)C3CCC12C (stereo unspecified)", "growth inhibition", 33.9),
    ("COC1OC(CCl)C(Cl)C(Cl)C1O (stereo unspecified)", "growth inhibition", 4.8),
    ("Cc1cccc2c(NCCC[N+](C)(C)[O-])c3c([N+](=O)[O-])ccc(C)c3nc12", "growth inhibition", 43),
    ("Nc1nc(-c2cccc(S(=O)(=O)O)c2)c([N+](=O)[O-])c(=O)[nH]1", "growth inhibition", 17.6),
    ("COc1ccc(C2C3=CONC3CC3CCCCC32)cc1 (stereo unspecified)", "growth inhibition", 6.5),
    ("Cc1[nH]c2nccn2c(=O)c1CCCl", "growth inhibition", 7.1),
    ("O=C1NC(c2cccc3c2OCO3)N=C2Oc3ccccc3C=C12 (stereo unspecified)", "growth inhibition", -10.6),
    ("CC(C)(C)c1ccc(OCCOCCOc2ccc(C(C)(C)C)cc2S(N)(=O)=O)c(S(N)(=O)=O)c1", "growth inhibition", -6.35),
    ("O=S(=O)(CCN1CCCCC1)c1ccc(F)cc1", "growth inhibition", 9.95),
    ("C=C(C)C(=O)OCCOCC(CC)CCCC (stereo unspecified)", "growth inhibition", -1.8),
    ("O=C(Nc1cc(Cl)c(Cl)cc1Cl)N1CCOCC1", "growth inhibition", -5.15),
    ("O=C(Cc1ccc(Cl)cc1)NCCc1ccccc1", "growth inhibition", 7.3),
    ("CC(C)COC(=N)c1ccccc1C1(O)CCCCC1", "growth inhibition", -17.6),
    ("COc1ccc(Cl)cc1[N+](=O)[O-]", "growth inhibition", 18.2),
    ("O=C(O)c1cnc(Cl)c(Br)c1", "growth inhibition", 2.5),
    ("O=C1CCCCC1C(Nc1ccccc1)c1ccccc1 (stereo unspecified)", "growth inhibition", 17.1),
]

FYI, the data here is from PubChem BioAssay (NCI).
